- Tested on: KM12 cell (TPM3-TRKA)
- Protocol Description: Cell proliferation assay (CellTiter-Glo, 72 hours)
- Type: cell-based, human
- Condition Context: Homo sapiens, KM12, anti-cell proliferation
pIC50: −log10 of the molar value.
Lab note: class by pIC50, see low interval: < 7; middle interval: ≥ 7 and < 8; high interval: ≥ 8

Compound: C[C@@H]1COc2ncc(F)cc2CN2c3nc4c(cnn4cc3O[C@@H]3CC[C@@H]32)C(=O)N1 [Compound 11]
Class: high interval
--
Compound: O=C1NC[C@H](F)COc2ncc(F)cc2CN2c3nc4c1cnn4cc3O[C@H]1CCC[C@H]12 [Compound 38]
Class: high interval
--
Compound: O=C1N[C@H]2CC[C@H](C2)Oc2ncc(F)cc2CN2c3nc4c1cnn4cc3O[C@H]1CCC[C@H]12 [Compound 41]
Class: low interval
--
Compound: C[C@@H]1CCOc2ncc(F)cc2CN2c3nc4c(cnn4cc3O[C@H]3CCC[C@H]32)C(=O)N1 [Compound 16]
Class: middle interval
--
Compound: O=C1N[C@@H]2CCC[C@@H]2Oc2ncc(F)cc2CN2c3nc4c1cnn4cc3O[C@H]1CCC[C@H]12 [Compound 24]
Class: high interval
--
Compound: C[C@H]1CNC(=O)c2cnn3cc4c(nc23)N(Cc2cc(F)cnc2O1)[C@H]1COC[C@H]1O4 [Compound 31]
Class: low interval
--
Compound: O=C1NC2(CCCC2)COc2ncc(F)cc2CN2c3nc4c1cnn4cc3O[C@H]1CCC[C@H]12 [Compound 26]
Class: low interval
--
Compound: O=C1NC[C@@H](CO)Oc2ncc(F)cc2CN2c3nc4c1cnn4cc3O[C@H]1CCC[C@H]12 [Compound 49]
Class: low interval
--
Compound: C[C@@H]1COc2c(F)cc(F)cc2CN2c3nc4c(cnn4cc3O[C@H]3CCC[C@H]32)C(=O)N1 [Compound 7]
Class: middle interval

----------
- Assay Target: BaF3 EML4-ALK (Homo sapiens, UniProt Q9UM73)
- Construct: The EML4-ALK gene (variant 1) was synthesized at GenScript and cloned into pCDH-CMV-MCS-EF1-Puro plasmid (System Biosciences, Inc); fused on or other part: Q9HC35 (Echinoderm microtubule-associated protein-like 4)
- Sequence (Q9UM73 whole entry, change not shown, the tested form may be a part): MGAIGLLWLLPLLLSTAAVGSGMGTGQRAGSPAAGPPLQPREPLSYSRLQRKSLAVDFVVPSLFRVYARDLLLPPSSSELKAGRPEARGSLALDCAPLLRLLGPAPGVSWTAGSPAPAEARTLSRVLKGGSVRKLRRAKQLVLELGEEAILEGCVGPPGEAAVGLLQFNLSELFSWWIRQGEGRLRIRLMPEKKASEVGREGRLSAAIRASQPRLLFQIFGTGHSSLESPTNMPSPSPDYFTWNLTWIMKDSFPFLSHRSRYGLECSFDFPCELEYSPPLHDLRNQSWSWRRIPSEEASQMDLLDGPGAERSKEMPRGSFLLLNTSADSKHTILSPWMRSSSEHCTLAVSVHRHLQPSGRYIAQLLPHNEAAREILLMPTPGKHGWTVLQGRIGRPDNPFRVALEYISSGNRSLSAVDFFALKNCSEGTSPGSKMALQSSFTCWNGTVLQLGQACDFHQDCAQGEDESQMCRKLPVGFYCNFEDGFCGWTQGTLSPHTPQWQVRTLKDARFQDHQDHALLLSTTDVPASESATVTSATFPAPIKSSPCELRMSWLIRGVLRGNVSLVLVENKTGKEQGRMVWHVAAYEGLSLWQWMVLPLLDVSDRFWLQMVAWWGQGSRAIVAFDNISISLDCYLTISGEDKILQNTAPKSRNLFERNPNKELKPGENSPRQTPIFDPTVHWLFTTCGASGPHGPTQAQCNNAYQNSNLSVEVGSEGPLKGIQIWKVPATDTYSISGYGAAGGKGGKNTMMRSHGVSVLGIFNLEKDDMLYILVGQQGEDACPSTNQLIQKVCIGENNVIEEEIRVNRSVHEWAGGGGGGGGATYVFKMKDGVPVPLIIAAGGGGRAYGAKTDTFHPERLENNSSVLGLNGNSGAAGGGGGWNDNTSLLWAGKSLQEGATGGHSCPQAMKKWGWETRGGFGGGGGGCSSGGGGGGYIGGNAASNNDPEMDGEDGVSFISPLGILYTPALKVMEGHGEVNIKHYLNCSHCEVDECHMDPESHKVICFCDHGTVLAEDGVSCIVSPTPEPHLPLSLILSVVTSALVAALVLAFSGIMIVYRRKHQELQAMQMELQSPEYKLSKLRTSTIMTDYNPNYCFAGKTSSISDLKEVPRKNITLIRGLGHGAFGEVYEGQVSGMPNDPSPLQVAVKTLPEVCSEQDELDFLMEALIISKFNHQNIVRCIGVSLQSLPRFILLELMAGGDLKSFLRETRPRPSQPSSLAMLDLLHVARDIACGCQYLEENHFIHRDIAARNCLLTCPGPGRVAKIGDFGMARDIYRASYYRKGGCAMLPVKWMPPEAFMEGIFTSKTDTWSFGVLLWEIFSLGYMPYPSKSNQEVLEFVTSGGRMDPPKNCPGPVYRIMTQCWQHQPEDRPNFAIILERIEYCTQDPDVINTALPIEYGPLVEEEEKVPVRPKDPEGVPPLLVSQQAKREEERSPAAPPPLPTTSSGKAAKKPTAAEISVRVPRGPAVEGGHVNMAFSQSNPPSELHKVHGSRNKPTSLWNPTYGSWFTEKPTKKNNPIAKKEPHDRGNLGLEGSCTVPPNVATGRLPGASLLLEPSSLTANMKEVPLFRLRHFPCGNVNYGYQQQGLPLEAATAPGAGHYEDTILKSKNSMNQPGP
- Protocol Description: Cell proliferation assay (CellTiter-Glo, 72 hours)
- Format: cell-based
- Condition Context: anti-cell proliferation
The entries below are paired with their reported GI50.
Measured Property: GI50 (nM)

Smiles Text: O=C1N[C@H]2CC[C@H](C2)Oc2ncc(F)cc2CN2c3nc4c1cnn4cc3O[C@H]1CCC[C@H]12
Assay Target: BaF3 EML4-ALK (Homo sapiens, UniProt Q9UM73)
Inequality Sign: =
Assay Value: 1450
--
Smiles Text: C[C@H]1CNC(=O)c2cnn3cc4c(nc23)N(Cc2cc(F)ccc2O1)[C@@H]1COC[C@@H]1O4
Assay Target: BaF3 EML4-ALK (Homo sapiens, UniProt Q9UM73)
Inequality Sign: =
Assay Value: 3290
--
Smiles Text: O=C1NC[C@@H](F)COc2ncc(F)cc2CN2c3nc4c1cnn4cc3O[C@H]1CCC[C@H]12
Assay Target: BaF3 EML4-ALK (Homo sapiens, UniProt Q9UM73)
Inequality Sign: =
Assay Value: 152
--
Smiles Text: O=C1N[C@@H]2CC[C@@H](C2)Oc2ncc(F)cc2CN2c3nc4c1cnn4cc3O[C@H]1CCC[C@H]12
Assay Target: BaF3 EML4-ALK (Homo sapiens, UniProt Q9UM73)
Inequality Sign: =
Assay Value: 338
--
Smiles Text: C[C@H]1CNC(=O)c2cnn3cc4c(nc23)N(Cc2cc(F)cnc2OC1)[C@@H]1CCC[C@@H]1O4
Assay Target: BaF3 EML4-ALK (Homo sapiens, UniProt Q9UM73)
Inequality Sign: =
Assay Value: 616
--
Smiles Text: C[C@H]1CNC(=O)c2cnn3cc4c(nc23)N(Cc2cc(F)cnc2O1)[C@@H]1CCC[C@@H]1O4
Assay Target: BaF3 EML4-ALK (Homo sapiens, UniProt Q9UM73)
Inequality Sign: =
Assay Value: 516
--
Smiles Text: O=C1NC2(COc3ncc(F)cc3CN3c4nc5c1cnn5cc4O[C@H]1CCC[C@H]13)CC(F)(F)C2
Assay Target: BaF3 EML4-ALK (Homo sapiens, UniProt Q9UM73)
Inequality Sign: =
Assay Value: 3000
--
Smiles Text: O=C1NC[C@@H](O)COc2ncc(F)cc2CN2c3nc4c1cnn4cc3O[C@H]1CCC[C@H]12
Assay Target: BaF3 EML4-ALK (Homo sapiens, UniProt Q9UM73)
Inequality Sign: =
Assay Value: 2990
--
Smiles Text: O=C1NC2(CCC2)CCOc2ncc(F)cc2CN2c3nc4c1cnn4cc3O[C@H]1CCC[C@H]12
Assay Target: BaF3 EML4-ALK (Homo sapiens, UniProt Q9UM73)
Inequality Sign: =
Assay Value: 3110
--
Smiles Text: C[C@@H]1CCOc2ncc(F)cc2CN2c3nc4c(cnn4cc3O[C@H]3CCC[C@H]32)C(=O)N1
Assay Target: BaF3 EML4-ALK (Homo sapiens, UniProt Q9UM73)
Inequality Sign: =
Assay Value: 340
--
Smiles Text: C[C@H]1CCOc2ncc(F)cc2CN2c3nc4c(cnn4cc3O[C@H]3CCC[C@H]32)C(=O)N1
Assay Target: BaF3 EML4-ALK (Homo sapiens, UniProt Q9UM73)
Inequality Sign: =
Assay Value: 803
--
Smiles Text: C[C@H]1CCNC(=O)c2cnn3cc4c(nc23)N(Cc2cc(F)cnc2O1)[C@@H]1CCC[C@@H]1O4
Assay Target: BaF3 EML4-ALK (Homo sapiens, UniProt Q9UM73)
Inequality Sign: =
Assay Value: 364
--
Smiles Text: CC1(C)COc2ncc(F)cc2CN2c3nc4c(cnn4cc3O[C@H]3CCC[C@H]32)C(=O)N1
Assay Target: BaF3 EML4-ALK (Homo sapiens, UniProt Q9UM73)
Inequality Sign: =
Assay Value: 462
--
Smiles Text: O=C1NCC2(CCC2)COc2ncc(F)cc2CN2c3nc4c1cnn4cc3O[C@H]1CCC[C@H]12
Assay Target: BaF3 EML4-ALK (Homo sapiens, UniProt Q9UM73)
Inequality Sign: =
Assay Value: 1680
--
Smiles Text: C[C@@H]1CNC(=O)c2cnn3cc4c(nc23)N(Cc2cc(F)cnc2O1)[C@H]1CCC[C@H]1O4
Assay Target: BaF3 EML4-ALK (Homo sapiens, UniProt Q9UM73)
Inequality Sign: >
Assay Value: 10000
--
Smiles Text: CC1(C)CNC(=O)c2cnn3cc4c(nc23)N(Cc2cc(F)cnc2OC1)[C@@H]1CCC[C@@H]1O4
Assay Target: BaF3 EML4-ALK (Homo sapiens, UniProt Q9UM73)
Inequality Sign: =
Assay Value: 1000
--
Smiles Text: C[C@H]1CNC(=O)c2cnn3cc4c(nc23)N(Cc2cc(F)ccc2O1)[C@@H]1CCC[C@H]1O4
Assay Target: BaF3 EML4-ALK (Homo sapiens, UniProt Q9UM73)
Inequality Sign: >
Assay Value: 10000
--
Smiles Text: O=C1N[C@H](C(F)(F)F)COc2ncc(F)cc2CN2c3nc4c1cnn4cc3O[C@H]1CCC[C@H]12
Assay Target: BaF3 EML4-ALK (Homo sapiens, UniProt Q9UM73)
Inequality Sign: =
Assay Value: 456
--
Smiles Text: O=C1NCC(O)(O)COc2ncc(F)cc2CN2c3nc4c1cnn4cc3O[C@H]1CCC[C@H]12
Assay Target: BaF3 EML4-ALK (Homo sapiens, UniProt Q9UM73)
Inequality Sign: =
Assay Value: 2000
--
Smiles Text: C[C@H]1CNC(=O)c2cnn3cc4c(nc23)N(Cc2cc(F)cnc2O1)[C@@H]1COC[C@@H]1O4
Assay Target: BaF3 EML4-ALK (Homo sapiens, UniProt Q9UM73)
Inequality Sign: =
Assay Value: 2000
--
Smiles Text: C[C@H]1CNC(=O)c2cnn3cc4c(nc23)N(Cc2cc(F)cnc2O1)[C@H]1CC[C@H]1O4
Assay Target: BaF3 EML4-ALK (Homo sapiens, UniProt Q9UM73)
Inequality Sign: =
Assay Value: 8000
--
Smiles Text: C[C@@H]1CCNC(=O)c2cnn3cc4c(nc23)N(Cc2cc(F)cnc2O1)[C@@H]1CCC[C@@H]1O4
Assay Target: BaF3 EML4-ALK (Homo sapiens, UniProt Q9UM73)
Inequality Sign: =
Assay Value: 1100
--
Smiles Text: C[C@@H]1COc2ncc(F)cc2CN2c3nc4c(cnn4cc3O[C@H]3CCC[C@H]32)C(=O)N1
Assay Target: BaF3 EML4-ALK (Homo sapiens, UniProt Q9UM73)
Inequality Sign: =
Assay Value: 146
--
Smiles Text: O=C1NC[C@H](F)COc2ncc(F)cc2CN2c3nc4c1cnn4cc3O[C@H]1CCC[C@H]12
Assay Target: BaF3 EML4-ALK (Homo sapiens, UniProt Q9UM73)
Inequality Sign: =
Assay Value: 82.1
--
Smiles Text: CC(=O)N1C[C@@H]2Oc3cn4ncc5c4nc3N(Cc3cc(F)cnc3O[C@@H](C)CNC5=O)[C@@H]2C1
Assay Target: BaF3 EML4-ALK (Homo sapiens, UniProt Q9UM73)
Inequality Sign: >
Assay Value: 10000
--
Smiles Text: O=C1NCCCOc2ncc(F)cc2CN2c3nc4c1cnn4cc3O[C@H]1CCC[C@H]12
Assay Target: BaF3 EML4-ALK (Homo sapiens, UniProt Q9UM73)
Inequality Sign: =
Assay Value: 895
--
Smiles Text: C[C@@H]1COc2ncc(F)cc2CN2c3nc4c(cnn4cc3O[C@H]3CC[C@H]32)C(=O)N1
Assay Target: BaF3 EML4-ALK (Homo sapiens, UniProt Q9UM73)
Inequality Sign: =
Assay Value: 4000
--
Smiles Text: CC(=O)N1C[C@H]2Oc3cn4ncc5c4nc3N(Cc3cc(F)cnc3O[C@@H](C)CNC5=O)[C@H]2C1
Assay Target: BaF3 EML4-ALK (Homo sapiens, UniProt Q9UM73)
Inequality Sign: >
Assay Value: 10000
--
Smiles Text: O=C1NC2(CCC2)COc2ncc(F)cc2CN2c3nc4c1cnn4cc3O[C@H]1CCC[C@H]12
Assay Target: BaF3 EML4-ALK (Homo sapiens, UniProt Q9UM73)
Inequality Sign: =
Assay Value: 157
--
Smiles Text: O=C1NC[C@@H](CO)Oc2ncc(F)cc2CN2c3nc4c1cnn4cc3O[C@H]1CCC[C@H]12
Assay Target: BaF3 EML4-ALK (Homo sapiens, UniProt Q9UM73)
Inequality Sign: >
Assay Value: 10000
